- System: 777334-354-R2-J4-PDC tumor spheroids with HUVEC/MSC, viability
- assay_summary: Anticancer human tumor 777334-354-R2-J4-PDC patient-derived pancreatic adenocarcinoma cell line growth inhibition [GQUAD]
- experimental_parameters: second compound 0.0316 µM; first compound 0.1 µM; stronger effect = lower value
Property: viability, T/C; scope: individual molecules
Expressed in %, but write only the number.

| molecule | system | unit_string | value_reported |
| --- | --- | --- | --- |
| CC1COCCN1c1cc(C2(S(C)(=N)=O)CC2)nc(-c2ccnc3[nH]ccc23)n1 (stereo not given) + CN(C)c1ccc(Nc2c3ccc(NC(=O)CCN4CCCC4)cc3nc3cc(NC(=O)CCN4CCCC4)ccc23)cc1 | 777334-354-R2-J4-PDC tumor spheroids with HUVEC/MSC, viability | % | 85.8 |
| C=CCn1c(=O)c2cnc(Nc3ccc(N4CCN(C)CC4)cc3)nc2n1-c1cccc(C(C)(C)O)n1 + Cc1[nH]c2ccc(F)cc2c1-c1nc2c3cccnc3c3ncccc3c2[nH]1 | 777334-354-R2-J4-PDC tumor spheroids with HUVEC/MSC, viability | % | 106 |
| COc1cccc2c1C(=O)c1c(O)c3c(c(O)c1C2=O)CC(O)(C(=O)CO)CC3OC1CC(N)C(O)C(C)O1 (stereo not given) + CN(C)c1ccc(Nc2c3ccc(NC(=O)CCN4CCCC4)cc3nc3cc(NC(=O)CCN4CCCC4)ccc23)cc1 | 777334-354-R2-J4-PDC tumor spheroids with HUVEC/MSC, viability | % | 84.4 |
| CC1COCCN1c1cc(C2(O)CC3CCC(C2)O3)c2cnn(-c3ccn[nH]3)c2n1 (stereo not given) + CN(C)c1ccc(Nc2c3ccc(NC(=O)CCN4CCCC4)cc3nc3cc(NC(=O)CCN4CCCC4)ccc23)cc1 | 777334-354-R2-J4-PDC tumor spheroids with HUVEC/MSC, viability | % | 79.1 |

Asked: Quick one: viability, T/C of O=C(NO)c1cnc(N2CCN(S(=O)(=O)c3ccc4ccccc4c3)CC2)nc1 + Cc1cnc(CNC(=O)c2c(=O)c3ccc(N4CCCN(C)CC4)nc3n3c2sc2ccccc23)cn1 ?
Given back: 71.9

----------
Property: viability, T/C; scope: individual compounds
- System: 777334-354-R2-J4-PDC tumor spheroids with HUVEC/MSC, viability
- assay_summary: Anticancer human tumor 777334-354-R2-J4-PDC cell line growth inhibition [GQUAD];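 also: spheroids exposed to compounds for 7 days before readout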
- experimental_parameters: second compound 1 µM; first compound 0.0316 µM; stronger effect = lower value
Expressed in %, but write only the number.

Recorded results for 3 compounds are shown here.
| compound | unit_string | value_reported |
| --- | --- | --- |
| COc1cc(C2c3cc4c(cc3C(OC3OC5COC(C)OC5C(O)C3O)C3COC(=O)C23)OCO4)cc(OC)c1O (stereo not given) + CN(C)c1ccc(Nc2c3ccc(NC(=O)CCN4CCCC4)cc3nc3cc(NC(=O)CCN4CCCC4)ccc23)cc1 | % | 90.5 |
| CC1COCCN1c1cc(C2(S(C)(=N)=O)CC2)nc(-c2ccnc3[nH]ccc23)n1 (stereo not given) + Cc1cnc(CNC(=O)c2c(=O)c3ccc(N4CCCN(C)CC4)nc3n3c2sc2ccccc23)cn1 | % | 76.2 |
| CC[C@@]1(O)C(=O)OCc2c1cc1n(c2=O)Cc2cc3c(CN(C)C)c(O)ccc3nc2-1 + Cc1[nH]c2ccc(F)cc2c1-c1nc2c3cccnc3c3ncccc3c2[nH]1 | % | 83.6 |

Asked: Quick one: viability, T/C of Cc1cccc(N(C)C(=O)C2C(O)CCN2c2nc(C)cc(C(F)(F)F)c2C#N)c1 (stereo not given) + CN(C)c1ccc(Nc2c3ccc(NC(=O)CCN4CCCC4)cc3nc3cc(NC(=O)CCN4CCCC4)ccc23)cc1 ?
Given back: 90.7

Asked: Input Cc1[nH]c2ccccc2c1CCNCc1ccc(/C=C/C(=O)NO)cc1 + Cc1cnc(CNC(=O)c2c(=O)c3ccc(N4CCCN(C)CC4)nc3n3c2sc2ccccc23)cn1
Given back: 58.1

Asked: Input COc1ccc([C@@H](O)c2cc(-c3ncnc4cc(N5CCOCC5)ccc34)c(F)cc2Cl)nn1 + Cc1cnc(CNC(=O)c2c(=O)c3ccc(N4CCCN(C)CC4)nc3n3c2sc2ccccc23)cn1
Given back: 76.2

Asked: Input CC1COCCN1c1cc(C2(S(C)(=N)=O)CC2)nc(-c2ccnc3[nH]ccc23)n1 (stereo not given) + CN(C)c1ccc(Nc2c3ccc(NC(=O)CCN4CCCC4)cc3nc3cc(NC(=O)CCN4CCCC4)ccc23)cc1
Given back: 90.5

Asked: Input CC(=O)O[C@H]1C(=O)[C@@]2(C)[C@H]([C@H](OC(=O)c3ccccc3)[C@]3(O)C[C@H](OC(=O)[C@H](O)[C@@H](NC(=O)c4ccccc4)c4ccccc4)C(C)=C1C3(C)C)[C@]1(OC(C)=O)CO[C@@H]1C[C@@H]2O + Cc1[nH]c2ccc(F)cc2c1-c1nc2c3cccnc3c3ncccc3c2[nH]1
Given back: 70.9

Asked: Input CC(=O)O[C@H]1C(=O)[C@@]2(C)[C@H]([C@H](OC(=O)c3ccccc3)[C@]3(O)C[C@H](OC(=O)[C@H](O)[C@@H](NC(=O)c4ccccc4)c4ccccc4)C(C)=C1C3(C)C)[C@]1(OC(C)=O)CO[C@@H]1C[C@@H]2O + CN(C)c1ccc(Nc2c3ccc(NC(=O)CCN4CCCC4)cc3nc3cc(NC(=O)CCN4CCCC4)ccc23)cc1
Given back: 59.2

Asked: Input CC(C)n1c(=O)n(C)c2cnc3cc(F)c(-c4ccc(OCCCN5CCCCC5)nc4)cc3c21 + Cc1cnc(CNC(=O)c2c(=O)c3ccc(N4CCCN(C)CC4)nc3n3c2sc2ccccc23)cn1
Given back: 73.3

Asked: Input C#Cc1c(F)ccc2cc(O)cc(-c3ncc4c(N5CC6CCC(C5)N6)nc(OCC56CCCN5CC(F)C6)nc4c3F)c12 (stereo not given) + Cc1cnc(CNC(=O)c2c(=O)c3ccc(N4CCCN(C)CC4)nc3n3c2sc2ccccc23)cn1
Given back: 36.2

----------
- System: 777334-354-R2-J4-PDC tumor spheroids with HUVEC/MSC, viability
- assay_summary: Anticancer human tumor 777334-354-R2-J4-PDC cell line growth inhibition [GQUAD];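 also: spheroids exposed to compounds for 7 days before readout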
- experimental_parameters: second compound 0.1 µM; first compound 1 µM; stronger effect = lower value
Cut-off 50% on viability, T/C: below means label 1, at or above means label 0.

Example entries begin here.
| compound | category_label |
| --- | --- |
| CC1COCCN1c1cc(-c2ccnn2C)c2ccnc(-c3ccn[nH]3)c2n1 (stereo unspecified) + Cc1[nH]c2ccc(F)cc2c1-c1nc2c3cccnc3c3ncccc3c2[nH]1 | label 1 |
| C=CCn1c(=O)c2cnc(Nc3ccc(N4CCN(C)CC4)cc3)nc2n1-c1cccc(C(C)(C)O)n1 + CN(C)c1ccc(Nc2c3ccc(NC(=O)CCN4CCCC4)cc3nc3cc(NC(=O)CCN4CCCC4)ccc23)cc1 | label 1 |
| CC1COCCN1c1cc(C2(S(C)(=N)=O)CC2)nc(-c2ccnc3[nH]ccc23)n1 (stereo unspecified) + Cc1cnc(CNC(=O)c2c(=O)c3ccc(N4CCCN(C)CC4)nc3n3c2sc2ccccc23)cn1 | label 0 |

Asked: Lab note: viability, T/C threshold 50%. Does this compound come in strictly under it? COc1ncnc(C2CC2)c1-c1ncc2cnn(Cc3ccc(-c4nc(C(F)(F)F)cn4C(C)C)cc3)c2n1 + CN(C)c1ccc(Nc2c3ccc(NC(=O)CCN4CCCC4)cc3nc3cc(NC(=O)CCN4CCCC4)ccc23)cc1
Given back: label 0

Asked: Input Cc1cccc(N(C)C(=O)C2C(O)CCN2c2nc(C)cc(C(F)(F)F)c2C#N)c1 (stereo unspecified) + Cc1[nH]c2ccc(F)cc2c1-c1nc2c3cccnc3c3ncccc3c2[nH]1
Given back: label 0

Asked: Input CCCS(=O)(=O)Nc1ccc(F)c(C(=O)c2c[nH]c3ncc(-c4ccc(Cl)cc4)cc23)c1F + CN(C)c1ccc(Nc2c3ccc(NC(=O)CCN4CCCC4)cc3nc3cc(NC(=O)CCN4CCCC4)ccc23)cc1
Given back: label 0

----------
Property: viability, T/C; scope: individual compounds
- Tested on: 777334-354-R2-J4-PDC tumor spheroids with HUVEC/MSC, viability
- assay_summary: Anticancer human tumor 777334-354-R2-J4-PDC cell line growth inhibition [GQUAD];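 also: spheroids exposed to compounds for 7 days before readout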
- experimental_parameters: second compound 1 µM; first compound 0.00999 µM; stronger effect = lower value
Expressed in %, but write only the number.

Recorded results for 6 compounds are shown here.
| compound | unit_string | viability, T/C |
| --- | --- | --- |
| CC[C@@]1(O)C(=O)OCc2c1cc1n(c2=O)Cc2cc3c(CN(C)C)c(O)ccc3nc2-1 + Cc1[nH]c2ccc(F)cc2c1-c1nc2c3cccnc3c3ncccc3c2[nH]1 | % | 85.9 |
| Cc1[nH]c2ccccc2c1CCNCc1ccc(/C=C/C(=O)NO)cc1 + Cc1cnc(CNC(=O)c2c(=O)c3ccc(N4CCCN(C)CC4)nc3n3c2sc2ccccc23)cn1 | % | 68.2 |
| Cn1ncnc1[C@H]1c2n[nH]c(=O)c3cc(F)cc(c23)N[C@@H]1c1ccc(F)cc1 + CN(C)c1ccc(Nc2c3ccc(NC(=O)CCN4CCCC4)cc3nc3cc(NC(=O)CCN4CCCC4)ccc23)cc1 | % | 85.5 |
| CCc1c2c(nc3ccc(O)cc13)-c1cc3c(c(=O)n1C2)COC(=O)[C@]3(O)CC + Cc1cnc(CNC(=O)c2c(=O)c3ccc(N4CCCN(C)CC4)nc3n3c2sc2ccccc23)cn1 | % | 40.6 |
| CC[C@@]1(O)C(=O)OCc2c1cc1n(c2=O)Cc2cc3c(CN(C)C)c(O)ccc3nc2-1 + Cc1cnc(CNC(=O)c2c(=O)c3ccc(N4CCCN(C)CC4)nc3n3c2sc2ccccc23)cn1 | % | 76 |
| Cc1[nH]c2ccccc2c1CCNCc1ccc(/C=C/C(=O)NO)cc1 + CN(C)c1ccc(Nc2c3ccc(NC(=O)CCN4CCCC4)cc3nc3cc(NC(=O)CCN4CCCC4)ccc23)cc1 | % | 88.3 |

Asked: Quick one: viability, T/C of Cn1ncnc1[C@H]1c2n[nH]c(=O)c3cc(F)cc(c23)N[C@@H]1c1ccc(F)cc1 + Cc1[nH]c2ccc(F)cc2c1-c1nc2c3cccnc3c3ncccc3c2[nH]1 ?
Given back: 91.2

Asked: Input Cn1ncnc1[C@H]1c2n[nH]c(=O)c3cc(F)cc(c23)N[C@@H]1c1ccc(F)cc1 + Cc1cnc(CNC(=O)c2c(=O)c3ccc(N4CCCN(C)CC4)nc3n3c2sc2ccccc23)cn1
Given back: 64.4
